System: OVCAR-8 ovarian
Assay: NCI-60 one-dose screen, 48 h (100 = growth as untreated, 0 = no growth, -100 = all killed)
Settings: 10 µM unless noted
Compounds without any hit were thinned out: in the full panel of roughly 83,000, 20% have a hit. Activity calls are given as the source filed them. Rule for the calls: active = growth percent below 10; inactive = the rest.
measuredAttribute: growth

Note to self: growth of Cc1ccc(NC(=O)Nc2nc3ccc([N+](=O)[O-])cc3s2)cc1 with OVCAR-8 ovarian was 12.8% (inactive)

Value sought: growth, system OVCAR-8 ovarian, item CCN(CC)CCOc1ccc(C(=C(c2ccccc2)C2CCCC2)c2ccc(OCCN(CC)CC)cc2)cc1 . Result: 40.5% (inactive)

Tested on OVCAR-8 ovarian, the item COc1cccc2c1[C@H](OC)[C@]13O[C@@]1(C2=O)[C@H](O)[C@H](C)[C@@](O)(C(=O)[C@@H]1O[C@H]1C)[C@@H]3O showed growth equal to -13.2% (active)

Summary: CCc1nnc(NC(=O)c2cc(-c3ccc(Cl)cc3Cl)oc2C)s1 , OVCAR-8 ovarian, growth = 90.3% (inactive)

// growth (OVCAR-8 ovarian) for CCOC(=O)Nc1ccc2c(ccn2C(=O)c2cccc(F)c2)c1 = 43.9% (inactive)

growth for OVCAR-8 ovarian with input CCc1cc2c(cc1Cl)nc1c(=O)[nH]c(=O)nc-1n2CCOCC(C)(C)C equals 72.2% (inactive)

Lab entry: OVCAR-8 ovarian assay, compound O=S(=O)(Oc1ccc(-c2cn3ccoc3n2)cc1)C1CCCCC1 , growth = 100% (inactive)
